Tested System: T1, human PD-L1 over-expressed on HEK293E cells (human, UniProt Q9NZQ7 19-290)
T1 construct: whole, on cells; also called human PD-L1 (NM_014143.2)
T1 sequence (Q9NZQ7 19-290): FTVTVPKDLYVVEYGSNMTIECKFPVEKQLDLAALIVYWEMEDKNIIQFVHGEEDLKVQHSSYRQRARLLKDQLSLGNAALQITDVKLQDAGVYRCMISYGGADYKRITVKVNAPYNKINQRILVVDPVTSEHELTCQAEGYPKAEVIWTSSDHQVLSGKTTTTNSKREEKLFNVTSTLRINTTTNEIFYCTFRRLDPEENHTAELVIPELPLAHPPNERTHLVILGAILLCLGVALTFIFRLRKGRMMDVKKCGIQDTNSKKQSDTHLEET
Experiment Summary: flow cytometry on HEK293E/PD-L1 cells, FITC anti-human IgG, serial dilutions; fit table
Measure: Bmax
Enter the number alone.

Documented Bmax of PDL1-16E12 (LS/4C9) (antibody, V domains shown, also called PD-L1-16E12-4C9) VH: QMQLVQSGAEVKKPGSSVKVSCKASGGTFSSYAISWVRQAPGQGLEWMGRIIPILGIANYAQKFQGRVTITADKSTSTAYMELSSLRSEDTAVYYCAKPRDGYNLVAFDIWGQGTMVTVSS VL: QLVLTQPPSVSGAPGQRVTISCTGGSSNIGAGYDVHWYQQLPGTAPKLLLFGNTNRPSGVPGRFSGSKSGSSASLAITGLQSDDEADYYCQSYDSSLGGSVIGTGTKVTVL : 4400

Briefly, Bmax measured for PDL1-16E12 (LS/4H8) (antibody, V domains shown, also called PD-L1-16E12-4H8) VH: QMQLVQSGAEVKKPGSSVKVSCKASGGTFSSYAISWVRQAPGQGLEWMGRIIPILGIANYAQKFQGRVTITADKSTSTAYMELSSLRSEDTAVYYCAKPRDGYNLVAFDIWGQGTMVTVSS VL: QLVLTQPSSVSGAPGQRVTISCTGSSSNIGAGYDVHWYQQLPGTAPKLLIYGNSNRPSGVPDRFSGSKSGTSASLAITGLQAEDEADYYCQSYDSSLSGSGVFGTGTKVTVL : 3990

For record PDL1-16E12 (LS/4A11) (antibody, V domains shown, also called PD-L1-16E12-4A11) VH: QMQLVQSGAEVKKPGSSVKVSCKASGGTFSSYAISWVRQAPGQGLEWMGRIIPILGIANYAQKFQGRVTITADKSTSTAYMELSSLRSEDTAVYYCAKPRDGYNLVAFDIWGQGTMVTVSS VL: QLVLTQPPSVSGAPGQRVIISCTGSSSNIGAGYDVHWYQQVPGTAPKLLIYGNNHRPSGVPDRFSGSKSGTSASLAITGLQAEDETDYYCQSYDNRLSGSLFGGGTKLTVL the listed Bmax is 4230
